System name: PRMT5 (Homo sapiens)
Construct: endogenous in cells
Assay text: PRMT5 Cell Target Engagement (TE) Assay
Condition set: MCF-7 cells, 3 days treatment, nuclear SDMA by high content imaging
Readout label: EC50 (nM)

C[C@@]1(O)[C@@H]([C@@H](O)c2cc(F)cc(F)c2F)O[C@@H](n2ccc3c(N)ncnc32)[C@@H]1O [Example 53] :: 8960
C[C@]1(O)[C@@H](O)[C@H](n2ccc3c(N)ncnc32)O[C@@H]1[C@](C)(O)c1cncc(C(F)F)c1 [Example 77] :: 1330
C[C@@]1(O)[C@@H]([C@H](O)c2cccc3c2CNCC3)O[C@@H](n2ccc3c(N)ncnc32)[C@@H]1O [Example 70] :: 1190

(I) Cc1ncnc2c1ccn2[C@@H]1O[C@H]([C@@H](O)c2cc(C(F)F)c(F)c3c2CNCC3)[C@@](C)(O)[C@H]1O (single isomer, unassigned) [Example 90]
(II) C[C@@]1(O)[C@@H]([C@H](O)c2cccc(F)c2F)O[C@@H](n2ccc3c(N)ncnc32)[C@@H]1O [Example 44]
(III) C[C@]1(O)[C@@H](O)[C@H](n2ccc3c(N)ncnc32)O[C@@H]1[C@](C)(O)c1cc(F)cc(C(F)F)c1 [Example 66]
Put the molecules in ascending order of EC50. Please reply with the labels ordered as requested. Many thanks.
III, I, II

(1) C[C@]1(O)[C@@H](O)[C@H](n2ccc3c(N)ncnc32)O[C@@H]1[C@](C)(O)c1cccc(C(F)F)c1 [Example 62]
(2) Cc1ccc([C@@H](O)[C@H]2O[C@@H](n3ccc4c(N)ncnc43)[C@H](O)[C@]2(C)O)cc1 [Example 30]
(3) Cc1ncnc2c1ccn2[C@@H]1O[C@H]([C@](C)(O)c2cc(C(F)F)c(F)c3c2CNCC3)[C@@](C)(O)[C@H]1O [Example 91]
Arrange items by their EC50 values in increasing order. // format: requested-order list of labels
3, 1, 2
(3: 0.54 nM, 1: 9.4 nM, 2: 3170 nM)

(I) COc1ccc([C@@H](O)[C@H]2O[C@@H](n3ccc4c(N)ncnc43)[C@H](O)[C@]2(C)O)cc1 [Example 32]
(II) C[C@]1(O)[C@@H](O)[C@H](n2ccc3c(N)ncnc32)O[C@@H]1[C@](C)(O)c1ccnc(C(F)F)c1 [Example 80]
Of the two listed items, I and II , which carries the larger EC50 figure? API: response body contains the label of the selected item.
I

(1) C[C@@]1(O)[C@@H]([C@@H](O)c2cc(C(F)F)c(F)c3c2CNCC3)O[C@@H](n2ccc3c(N)ncnc32)[C@@H]1O [Example 9]
(2) C[C@]1(O)[C@@H](O)[C@H](n2ccc3c(N)ncnc32)O[C@@H]1[C@](C)(O)c1cc(C(F)F)ccn1 [Example 76]
Which of these two has the smaller recorded EC50: 1 or 2 ? Answer by quoting the chosen item's label.
1

---

System name: PRMT5 (Homo sapiens, UniProt O14744)
Construct: endogenous in cells
Sequence (O14744 whole entry): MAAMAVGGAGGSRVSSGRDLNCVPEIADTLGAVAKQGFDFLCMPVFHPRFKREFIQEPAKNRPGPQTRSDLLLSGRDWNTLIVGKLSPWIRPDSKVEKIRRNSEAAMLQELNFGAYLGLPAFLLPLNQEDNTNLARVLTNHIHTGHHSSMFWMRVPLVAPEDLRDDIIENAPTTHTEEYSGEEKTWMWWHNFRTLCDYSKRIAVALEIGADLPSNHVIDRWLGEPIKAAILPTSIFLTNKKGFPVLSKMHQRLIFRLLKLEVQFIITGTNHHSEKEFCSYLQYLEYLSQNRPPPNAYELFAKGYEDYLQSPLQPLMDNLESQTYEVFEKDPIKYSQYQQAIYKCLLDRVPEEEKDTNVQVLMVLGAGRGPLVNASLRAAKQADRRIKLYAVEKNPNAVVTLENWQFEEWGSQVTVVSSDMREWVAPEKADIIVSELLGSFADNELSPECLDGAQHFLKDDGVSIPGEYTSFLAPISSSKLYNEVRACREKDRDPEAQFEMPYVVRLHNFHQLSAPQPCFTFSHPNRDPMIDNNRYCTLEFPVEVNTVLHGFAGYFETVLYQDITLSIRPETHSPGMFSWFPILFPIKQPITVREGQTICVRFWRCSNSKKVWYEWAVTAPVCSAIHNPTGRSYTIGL
Sequence (Q9BQA1 whole entry partner): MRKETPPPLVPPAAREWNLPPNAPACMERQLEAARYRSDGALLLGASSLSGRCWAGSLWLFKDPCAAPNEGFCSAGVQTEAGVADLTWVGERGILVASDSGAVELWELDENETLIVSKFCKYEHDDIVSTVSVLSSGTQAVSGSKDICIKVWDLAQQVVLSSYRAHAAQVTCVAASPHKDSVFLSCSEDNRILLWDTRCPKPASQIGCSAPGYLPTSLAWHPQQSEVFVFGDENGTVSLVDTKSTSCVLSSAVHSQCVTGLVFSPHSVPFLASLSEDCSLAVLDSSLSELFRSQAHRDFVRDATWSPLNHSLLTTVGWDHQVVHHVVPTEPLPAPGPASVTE
Assay text: PRMT5 Cell Target Engagement (TE) Assay
Condition set: MCF-7 cells, 3 days treatment, nuclear SDMA by high content imaging
Readout label: EC50 (nM)

Cc1ncnc2c1ccn2[C@@H]1O[C@H]([C@@H](C)c2cc(C(F)F)c(F)c3c2CNCC3)[C@@](C)(O)[C@H]1O (single isomer, unassigned) :: 1.4
C[C@@]1(O)[C@@H]([C@H](O)c2ccc(F)c(Cl)c2)O[C@@H](n2ccc3c(N)ncnc32)[C@@H]1O :: 65
C[C@@]1(O)[C@@H]([C@H](O)c2cc(F)cc(C(F)F)c2)O[C@@H](n2ccc3c(N)ncnc32)[C@@H]1O :: 16

(A) Cc1cccc([C@@H](O)[C@H]2O[C@@H](n3ccc4c(N)ncnc43)[C@H](O)[C@]2(C)O)c1
(B) C[C@@]1(O)[C@@H]([C@@H](O)c2cc(F)cc(C(F)F)c2F)O[C@@H](n2ccc3c(N)ncnc32)[C@@H]1O
Which shows the larger EC50 value: A or B ? Your answer should be the label attached to the chosen record.
B
(B: 6550 nM, A: 166 nM)

(A) C[C@@]1(O)[C@@H]([C@H](O)c2ccc(Cl)c(Cl)c2)O[C@@H](n2ccc3c(N)ncnc32)[C@@H]1O
(B) C[C@@]1(O)[C@@H]([C@H](O)c2cc(F)c(F)c(C(F)F)c2)O[C@@H](n2ccc3c(N)ncnc32)[C@@H]1O
(C) C[C@@]1(O)[C@@H]([C@H](O)c2ccc(F)cc2)O[C@@H](n2ccc3c(N)ncnc32)[C@@H]1O
Rank ascending by EC50. Lab note: final answer is the ordered label list.
A, B, C

(a) C[C@@]1(O)[C@@H]([C@H](O)c2cc(Cl)cc(Cl)c2)O[C@@H](n2ccc3c(N)ncnc32)[C@@H]1O
(b) Cc1ncnc2c1ccn2[C@@H]1O[C@H]([C@](C)(O)c2cccc3c2CNCC3)[C@@](C)(O)[C@H]1O
For the two items a and b , which reports the higher EC50 value? When you have decided, please share the label of that item.
b
(b: 47 nM, a: 14 nM)

(A) Cc1ccccc1[C@@H](O)[C@H]1O[C@@H](n2ccc3c(N)ncnc32)[C@H](O)[C@]1(C)O
(B) C=C(c1cc(F)cc(C(F)F)c1)[C@H]1O[C@@H](n2ccc3c(N)ncnc32)[C@H](O)[C@]1(C)O
(C) C[C@@]1(O)[C@@H]([C@H](O)c2cc(F)cc(C(F)F)c2F)O[C@@H](n2ccc3c(N)ncnc32)[C@@H]1O
(D) C[C@@]1(O)[C@@H]([C@@H](O)c2cc(F)cc(C(F)F)c2)O[C@@H](n2ccc3c(N)ncnc32)[C@@H]1O
(E) C[C@]1(O)[C@@H](O)[C@H](n2ccc3c(N)ncnc32)O[C@@H]1[C@](C)(O)c1ccc(F)c(F)c1
Output the entries ranked by EC50 from maximum down to minimum. // list labels; follow requested order
D, A, B, E, C
(D: 5060 nM, A: 2270 nM, B: 280 nM, E: 145 nM, C: 6.8 nM)

(1) C[C@@]1(O)[C@@H]([C@H](O)c2ccc(Cl)cc2F)O[C@@H](n2ccc3c(N)ncnc32)[C@@H]1O
(2) C[C@@]1(O)[C@@H]([C@H](O)c2cc(F)cc(F)c2F)O[C@@H](n2ccc3c(N)ncnc32)[C@@H]1O
(3) C[C@]1(O)[C@@H](O)[C@H](n2ccc3c(N)ncnc32)O[C@@H]1[C@](C)(O)c1cc(C(F)F)c(F)c2c1CNCC2
Sort low-to-high on EC50, please. Answer by writing out the labels in the requested order.
3, 2, 1
